Entry source: patent US9682976B2

Tested on: PKC mediated IL-2 production
assay-protocol: IL-2 ELISA, human primary T cell, anti CD3+CD28+
Format: cell-based
assay-setup: Homo sapiens, T-cell, 24 h, human primary T cells stimulated with αCD3 and αCD28, 24 hours
test-readout: EC50

Sample answers from the record:
| molecule | EC50 |
| --- | --- |
| CC1(C)C[C@H](Nc2nc(Nc3cc(-n4nnnc4C4CC4)c(OC4COC4)cc3F)ncc2F)C[C@@H]2CCCN21 [Compound 255] | < 100 nM |
| C[S+]([O-])c1nnnn1-c1cccc(Nc2ncc(F)c(N[C@@H]3C[C@@H]4CCCN4C(C)(C)C3)n2)c1 (stereo partly shown) [Compound 270] | 500 to 1000 nM |
| CC1(C)C[C@H](Nc2nc(Nc3cc(F)cc(S(F)(F)(F)(F)F)c3)ncc2F)C[C@@H]2CCCN21 [Compound 72] | 500 to 1000 nM |
| COCCOc1cc(F)c(Nc2ncc(F)c(N[C@@H]3C[C@@H]4CCCN4C(C)(C)C3)n2)cc1-n1nnn(C)c1=O [Compound 158] | 100 to 500 nM |
| Cn1nnn(-c2cc(Nc3ncc(Cl)c(N[C@@H]4C[C@@H]5CCCN5C(C)(C)C4)n3)c(F)cc2O)c1=O [Compound 232] | 500 to 1000 nM |
| CC1(C)C[C@H](Nc2nc(Nc3cccc(-n4nnnc4S(C)(=O)=O)c3)ncc2F)C[C@@H]2CCCN21 [Compound 269] | 500 to 1000 nM |

Shift focus to the following entry.
Incoming: Tell me measured EC50 for Cn1nnn(-c2cc(Nc3ncc(Cl)c(N[C@@H]4C[C@@H]5CCCN5C(C)(C)C4)n3)c(F)cc2OCC(C)(C)O)c1=O [Compound 240] please.
Outgoing: < 100 nM
